- Test system: P. berghei ANKA parasites
- test-protocol: Peters 4-day suppressive test, oral efficacy in P. berghei-infected mice
- Format: in vivo, Plasmodium berghei
- condition-notes: Experiment 3; Balb/C mice; 1 mg/kg p.o. twice a day on days 0-3; day 6 p.i.
Exercise: state measured number of mice showing blood parasites for each of the compounds provided.

Completed entries (count: 2):
CCc1nc(N)nc(N)c1OCCCOc1ccccc1CCC(=O)NO.Cl [1·HCl] | 1/6
CCc1nc(N)nc(N)c1OCCCOc1ccccc1/C=C/C(=O)NO.Cl [13·HCl] | 4/6

Respectfully, I request number of mice showing blood parasites for each entry included below.
1. CCc1nc(N)nc(N)c1OCCCOc1cccc(C(=O)NO)c1.Cl [8·HCl]
2. CCc1nc(N)nc(N)c1OCCCOc1ccccc1/C=C/C(=O)NOCc1ccc(OC(C)=O)cc1 [Compound 16]

["2/6", "3/5"]

----------
- Test system: P. berghei ANKA parasites
- test-protocol: Peters 4-day suppressive test, oral efficacy in P. berghei-infected mice
- Assay type: in vivo, Plasmodium berghei
- condition-notes: Experiment 3; Balb/C mice; 1 mg/kg p.o. twice a day on days 0-3; day 6 p.i.
- Procedure: Compounds powder was dissolved in DMSO and sonicated for 10 min. Appropriate volume of 50%W/v HPβCD was added dropwise under gentle swirling. […] P. berghei ANKA parasites stabilates conserved in liquid nitrogen were thawed and injected intraperitoneally (ip) into 2-3 mice (10^6 infected red blood cells (RBC) / mouse). […] On day 4 post infection (p.i.), the peripheral blood parasitemia of all mice was evaluated via microscopic examination of Giemsa-stained thin blood smears. […]
Exercise: state measured parasitemia (mean ± sd) for each of the compounds provided.

CCc1nc(N)nc(N)c1OCCCOc1ccccc1/C=C/C(=O)NO.Cl [13·HCl] | 2,05 ± 2,37%
CCc1nc(N)nc(N)c1OCCCOc1ccccc1CCC(=O)NO.Cl [1·HCl] | 0,15 ± 0,37%
CCc1nc(N)nc(N)c1OCCCOc1cccc(C(=O)NO)c1.Cl [8·HCl] | 0,08 ± 0,13%

Field: next compound
Sample CCc1nc(N)nc(N)c1OCCCOc1ccccc1/C=C/C(=O)NOCc1ccc(OC(C)=O)cc1 [Compound 16] — what was its parasitemia (mean ± sd)?
2,22 ± 2,44%

Where these numbers come from: patent EP4438596A1
